Quick list: pK2 per entry.
Biological target: Adrenergic receptor alpha-1 (Rattus norvegicus) (UniProt P15823+P23944+P43140)
Assay: Antagonistic activity against alpha-1 adrenergic receptor in rat cerebral cortex using [3H]prazosin as radioligand.
Type: functional, tissue-based
Number only, no unit.

// known answers, use as guide
In [3]: df
Out[3]:
                                   compound  test_result
0  N#Cc1ccccc1N1CCN(CCCCN2CC(=O)N3CCCCC3C2=O)CC1 (stereo not given)         7.52
1  N#Cc1ccccc1N1CCN(CCCN2CC(=O)N3CCCC3C2=O)CC1 (stereo not given)         7.76
2  Cc1ccccc1N1CCN(CCCCN2CC(=O)N3CCCC3C2=O)CC1 (stereo not given)         7.59
3  O=C1C2CCCN2C(=O)N1CCCN1CCN(c2cccc(Br)c2)CC1 (stereo not given)         7.61
4  CCCNC(=O)c1ccccc1N1CCN(CCCN2CC(=O)N3CCCCC3C2=O)CC1 (stereo not given)         6.09

The compound CCCOC(=O)c1ccccc1N1CCN(CCCCN2C(=O)C3CCCN3C2=O)CC1 (stereo not given) showed pK2 equal to 7.39

GET /value?item= CC(C)C(=O)Nc1cccc(N2CCN(CCCN3C(=O)C4CCCCN4C3=O)CC2)c1 (stereo not given) &field=pK2 returns 5.35

* * *

Biological target: Adrenergic receptor alpha-1 (Rattus norvegicus) (UniProt P15823+P23944+P43140)
Assay: Antagonistic activity against alpha-1 adrenergic receptor in rat cerebral cortex using [3H]prazosin as radioligand.
Assay type: functional, tissue-based
Item-by-item account of pK2
Please reply with the value in numeric form only.

                                   molecule                               test_system  test_result
0  CCCCOc1ccccc1N1CCN(CCCCN2C(=O)C3CCCCN3C2=O)CC1 (stereo not drawn)  Adrenergic receptor alpha-1 (Rattus norvegicus) (UniProt P15823+P23944+P43140)          8.3
1  Nc1cccc(N2CCN(CCCCN3C(=O)C4CCCCN4C3=O)CC2)c1 (stereo not drawn)  Adrenergic receptor alpha-1 (Rattus norvegicus) (UniProt P15823+P23944+P43140)         6.64

Attention now turns to another entry.
Lab note: measured pK2 of Cc1ccccc1N1CCN(CCCCN2C(=O)C3CCCN3C2=O)CC1 (stereo not drawn) was 8.15

Just for reference, ChEMBL document CHEMBL1136176 is where these values come from.
